Values from the nanobody polyreactivity screen of Harvey et al. (2022)

Protocol notes: yeast display, Sf9 membrane polyspecificity reagent, FACS + sequencing; frameworks hold sequencing errors
Measured quantity: polyreactivity (PSR sort gate)

entry_sequence=QVQLVESGGGLVQAGGSLRLSCAASGLTFIYYSMGWYRQAPGKERELVAAISVSGGSTYYADSVKGRFTISRDNAKNTVYLQMNSLKPEYTAVYYCAGDWFVHKPRYQYSFDYWGQGTQVTVSS measured_quantity="polyreactivity (PSR sort gate)" experimental_value="low polyreactivity"
entry_sequence=QVQLVESGGGLVQAGGSLRLSCAATGSIFNFYAMGWYRQAPGKERELVAAIDQNGGSTYYADSVKGRFTISRDNAKNTVYLQMNSLKPVDTAVYYCAKDHQSGRRTYTYRYDYWGQGTQVTVSS measured_quantity="polyreactivity (PSR sort gate)" experimental_value="low polyreactivity"
entry_sequence=QVQLVESGGGLVQAGGSLRLSCAASGSTFVPYTMGWYRQAPGKERELVAAISSGDSTYYADSVKGRFTISRDNAKNTVYLQMNSLKPEDTAVYYCAADYQWFWVWYGYWGQGTQVTVSS measured_quantity="polyreactivity (PSR sort gate)" experimental_value="high polyreactivity"
entry_sequence=QVQLVESGGGLVQAGGSLRLSCAASGNMFYRNGMGWYRQAPGKERQFVAAISRRGGSTYYADSVKGRFTISRDNAKNTVYLQMNSLKPEDTAVYYCATRYWPTNKGEYWGQGTQVTVSS measured_quantity="polyreactivity (PSR sort gate)" experimental_value="high polyreactivity"
